system: CTL clone LB1801 456/H8.33; assay: Peptide recognition (51Cr release), autologous EBV-B cells incubated with peptide; format: cell-based, human; conditions: effector-to-target ratio of 5:1, 4 hours, read-out: half-maximal lysis of target cells
Outcome measure: EC50

Task: Would you kindly share the measured EC50 for EVYDGREHSA ?
Result: ~300 pM
